test: Inhibition of bovine testes DPP9 assessed as pNA release from Ala-Pro- p-nitroanilide substrate pre-incubated with enzyme for 15 min prior to substrate addition by fluorescence technique; parameters: species or system Bos taurus
In this section we review reported IC50 values for a set of compounds.
MEASURED_METRIC: IC50 (nM)

>>> measurement("C[C@H]1CN(C(=O)C[C@H](N)C(=O)N2Cc3ccccc3C2)CCN1C(c1ccc(F)cc1)c1ccc(F)cc1")
260
>>> measurement("C[C@@H]1CN(C(=O)C[C@H](N)C(=O)N2Cc3ccccc3C2)CCN1C(c1ccc(F)cc1)c1ccc(F)cc1")
540
>>> measurement("N[C@@H](CC(=O)N1CCC(N2CCCCC2)CC1)C(=O)N1Cc2ccccc2C1")
1400
>>> measurement("N[C@@H](CC(=O)N1CCN(C(c2ccc(F)cc2)c2ccc(F)cc2)C(=O)C1)C(=O)N1Cc2ccccc2C1")
2600
>>> measurement("N[C@@H](CC(=O)N1CCN(C(c2ccc(F)cc2)c2ccc(F)cc2)CC1)C(=O)N1Cc2ccc(F)cc2C1")
25.4
>>> measurement("N[C@@H](CC(=O)N1CCN(C(c2ccccc2)c2ccc(Cl)cc2)CC1)C(=O)N1Cc2ccc(F)cc2C1 (some centres undefined)")
26.9
>>> measurement("N[C@@H](CC(=O)N1CCCN(C(c2ccc(F)cc2)c2ccc(F)cc2)CC1)C(=O)N1Cc2ccccc2C1")
260
>>> measurement("N[C@@H](CC(=O)N1CCN(C(=O)C2c3ccccc3-c3ccccc32)CC1)C(=O)N1Cc2ccccc2C1")
630
>>> measurement("N[C@@H](CC(=O)NC1CCN(C(c2ccc(F)cc2)c2ccc(F)cc2)C1)C(=O)N1Cc2ccccc2C1 (some centres undefined)")
16400
>>> measurement("N[C@@H](CC(=O)N1CCN(C(c2ccc(F)cc2)c2ccc(F)cc2)CC1)C(=O)N1Cc2ccccc2C1")
84
>>> measurement("N#Cc1ccccc1-c1ccc(CN2CCN(C(=O)C[C@H](N)C(=O)N3Cc4ccccc4C3)CC2)cc1")
530
>>> measurement("CC(C)c1cc(C(C)C)c(S(=O)(=O)N2CCN(C(=O)C[C@H](N)C(=O)N3Cc4ccccc4C3)CC2)c(C(C)C)c1")
540
>>> measurement("N[C@@H](CC(=O)N1CCN(C(=O)c2cccc(-c3ccccc3)c2)CC1)C(=O)N1Cc2ccccc2C1")
65
>>> measurement("N[C@@H](CC(=O)N1CCC[C@H]1C(=O)NC(c1ccc(F)cc1)c1ccc(F)cc1)C(=O)N1Cc2ccccc2C1")
1700
>>> measurement("N[C@@H](CC(=O)NC(c1ccc(F)cc1)c1ccc(F)cc1)C(=O)N1Cc2ccccc2C1")
35000
>>> measurement("N[C@@H](CC(=O)N1CCN(C(=O)C(c2ccc(Cl)cc2)c2ccc(Cl)cc2)CC1)C(=O)N1Cc2ccccc2C1")
680
>>> measurement("O=C([C@@H]1C[C@H](NCc2ccnc3ccccc23)CN1)N1Cc2ccccc2C1")
2100
>>> measurement("N[C@@H](CCC(=O)N1CCN(Cc2ccc(F)cc2)CC1)C(=O)N1Cc2ccccc2C1")
5000
>>> measurement("N[C@@H](CC(=O)NC(c1ccccc1)c1ccccc1)C(=O)N1Cc2ccccc2C1")
29100
>>> measurement("N[C@@H](CC(=O)N1CCN(C(c2ccccc2)c2ccc(Cl)cc2)CC1)C(=O)N1Cc2ccccc2C1 (some centres undefined)")
50
>>> measurement("N[C@@H](CC(=O)N1CCN(Cc2ccc3ccccc3c2)CC1)C(=O)N1Cc2ccccc2C1")
224
>>> measurement("N[C@@H](CC(=O)N1CCN(Cc2c(F)cccc2Cl)CC1)C(=O)N1Cc2ccccc2C1")
54000
>>> measurement("N[C@@H](CC(=O)N1C[C@H]2C[C@@H]1CN2C(c1ccc(F)cc1)c1ccc(F)cc1)C(=O)N1Cc2ccccc2C1")
1130
>>> measurement("N[C@@H](CCC(=O)N1CCN(C(c2ccc(F)cc2)c2ccc(F)cc2)CC1)C(=O)N1Cc2ccccc2C1")
4000
>>> measurement("N[C@@H](CC(=O)N1CCN(Cc2ccc(F)cc2)CC1)C(=O)N1Cc2ccccc2C1")
240
>>> measurement("N[C@@H](CC(=O)N1CCC[C@H]1C(=O)N1CCN(C(c2ccc(F)cc2)c2ccc(F)cc2)CC1)C(=O)N1Cc2ccccc2C1")
22600

====

biological target: Dipeptidyl peptidase 4 (Homo sapiens, UniProt P27487); assay: Inhibition of human seminal plasma DPP4 assessed as pNA release from Gly-Pro-p-nitroanilide substrate pre-incubated with enzyme for 15 min prior to substrate addition by fluorescence technique
Sequence (P27487 whole entry): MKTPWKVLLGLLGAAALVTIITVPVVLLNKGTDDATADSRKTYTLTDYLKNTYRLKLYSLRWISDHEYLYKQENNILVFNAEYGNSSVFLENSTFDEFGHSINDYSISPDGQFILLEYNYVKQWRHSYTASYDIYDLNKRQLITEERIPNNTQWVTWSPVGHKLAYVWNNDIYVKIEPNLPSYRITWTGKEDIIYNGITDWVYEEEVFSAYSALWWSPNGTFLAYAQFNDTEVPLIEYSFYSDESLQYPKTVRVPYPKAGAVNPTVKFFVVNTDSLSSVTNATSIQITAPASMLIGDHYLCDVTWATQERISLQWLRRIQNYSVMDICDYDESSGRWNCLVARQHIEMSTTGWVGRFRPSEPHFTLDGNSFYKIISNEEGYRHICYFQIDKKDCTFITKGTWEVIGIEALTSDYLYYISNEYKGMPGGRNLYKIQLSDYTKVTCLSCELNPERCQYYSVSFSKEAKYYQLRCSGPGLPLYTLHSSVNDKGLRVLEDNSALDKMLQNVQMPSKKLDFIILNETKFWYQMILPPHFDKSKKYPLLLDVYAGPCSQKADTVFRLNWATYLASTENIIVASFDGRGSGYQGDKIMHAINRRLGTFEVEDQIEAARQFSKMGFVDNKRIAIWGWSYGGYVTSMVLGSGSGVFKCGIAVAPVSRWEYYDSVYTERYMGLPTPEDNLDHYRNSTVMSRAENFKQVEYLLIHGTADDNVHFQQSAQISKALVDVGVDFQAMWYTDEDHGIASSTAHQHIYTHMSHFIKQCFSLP
MEASURED_METRIC: IC50

>>> measurement("N[C@@H](CC(=O)N1CCN(C(=O)C2c3ccccc3-c3ccccc32)CC1)C(=O)N1Cc2ccccc2C1")
"> 100 µM"
>>> measurement("O=C([C@@H]1C[C@H](NCc2ccnc3ccccc23)CN1)N1Cc2ccccc2C1")
"17.7 µM"
>>> measurement("N[C@@H](CC(=O)N1CCN(Cc2ccc(F)cc2)CC1)C(=O)N1Cc2ccccc2C1")
"> 100 µM"

====

test: Inhibition of bovine testes DPP9 assessed as pNA release from Ala-Pro- p-nitroanilide substrate pre-incubated with enzyme for 15 min prior to substrate addition by fluorescence technique; set-up: species or system Bos taurus
pIC50: −log10 of the molar value.
In this section we review reported pIC50 values for a set of compounds.
MEASURED_METRIC: pIC50

>>> measurement("COc1ccc2ccccc2c1CN[C@@H]1CN[C@H](C(=O)N2Cc3ccccc3C2)C1")
"< 4.30"
>>> measurement("N[C@@H](CC(=O)NC12CC3CC(CC(O)(C3)C1)C2)C(=O)N1Cc2ccccc2C1")
"< 5.00"
>>> measurement("O=C(CCC(=O)N1Cc2ccccc2C1)N1CCN(C(c2ccc(F)cc2)c2ccc(F)cc2)CC1")
"< 5.00"
